Molecular target: A3 receptor in the mouse (Mus musculus, UniProt Q61618)
Sequence (Q61618 1-319): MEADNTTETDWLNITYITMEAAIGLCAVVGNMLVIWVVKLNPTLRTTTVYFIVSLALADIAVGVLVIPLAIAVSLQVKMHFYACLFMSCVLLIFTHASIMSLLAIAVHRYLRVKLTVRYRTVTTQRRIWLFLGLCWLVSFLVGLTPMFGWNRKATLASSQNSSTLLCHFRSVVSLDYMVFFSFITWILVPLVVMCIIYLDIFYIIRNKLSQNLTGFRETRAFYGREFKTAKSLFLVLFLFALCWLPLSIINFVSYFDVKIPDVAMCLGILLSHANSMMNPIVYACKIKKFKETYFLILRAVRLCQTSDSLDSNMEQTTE

{"columns": ["compound", "unit-abbrev", "Ki"],
 "data": [
  ["CSc1nc(N)c2ncn([C@H]3[C@H](O)[C@H](O)[C@]4(CO)C[C@H]34)c2n1 [Compound I-1]", "µM", 4.9]
]}
